Test system: RXF 393 renal
Assay: NCI-60 one-dose screen, 48 h
Conditions: 10 µM unless noted
Compounds without any hit were thinned out: in the full panel of roughly 83,000, 20% have a hit. Active and inactive are the calls of the source. Rule for the calls: active = growth percent below 10; inactive = the rest.
Please reply with one of these outcomes: Y for active, N for inactive

Assay outcome for O=C(Nc1ccc(Nc2cc(Nc3ccccc3)ncn2)cc1)Nc1cc(C(F)(F)F)ccc1F : what was it?
N

Next: Cn1c2ccccc2c2c3c(c4c5ccccc5n(CCCCCC#N)c4c21)C(=O)N(O)C3=O
Y

How about O=C(CNC1C2CC3CC(C2)CC1C3)Sc1nnc2sc3ccccc3n12 (stereo not drawn) ?
N

Would you mind doing COc1ccc(-c2cc(=O)[nH]c3c(OC)c4ccccc4c(OC)c23)cc1 as well?
Y

Further, for O=C(Nc1ccc(Oc2ccc(F)cc2)c(Cl)c1)c1cccnc1 ?
N

Moving on to the next compound: COc1ccc(/C=C2\N=C3Sc4cc(Cl)ccc4C(=O)N3C2=O)cc1
N

Repeat with COc1cc2cc(COc3nccc(-c4ccc(Cl)cc4)n3)c(=O)[nH]c2cc1OC
N

Also check O=C(Nc1nc(-c2ccccc2)cc(-c2ccc(Cl)cc2)n1)c1ccncc1
N

Now give it for O=C1/C(=C/c2ccc(Cl)cc2Cl)CN(S(=O)(=O)c2ccccc2)C/C1=C\c1ccc(Cl)cc1Cl too.
Y

---

Tested on: SK-MEL-2 melanoma
Assay: NCI-60 one-dose screen, 48 h
Conditions: 10 µM unless noted
About 83,000 compounds went through this panel and 20% of them were active in at least one assay; those are over-represented in the sample as a whole. Calls of active or inactive are those of the source. Rule for the calls: active = growth percent below 10; inactive = the rest.
Pick one and only one: active, inactive

COc1ccc2c(c1)C(=O)/C(=C/c1cccc(OCC(=O)Nc3nc4c(s3)CCCC4)c1)O2	active
CC/C(Cc1ccccc1)=C(\c1ccc(OCCN2CCCC2)cc1)c1ccc(OC(C)=O)cc1	inactive
O=C(CO[N+](=O)[O-])Nc1ccc(C(=O)/C=C/c2ccc(Cl)cc2)cc1	inactive
CC[n+]1ccc2c(c1)C(=O)c1nccc3c1c-2nc1ccccc13	active

Called result for COc1cc(OC)c(/C=C/c2cc[n+](C)c3ccccc23)c(OC)c1
active

Would you kindly repeat that for O=C(Cn1cc(CN2C(=O)c3ccccc3S2(=O)=O)nn1)Nc1ccc([N+](=O)[O-])cc1Cl ?
inactive

Moving on to CCOC(=O)c1c2c(n3ccc(NC(=O)CCN4CCCCC4)cc13)C(=O)c1ncccc1C2=O
inactive

Next molecule: Cc1cc(Nc2nc(N3CCN(C)CC3)nc3ccccc23)n[nH]1
inactive

Try the molecule Cc1ccc(N)cc1F
inactive

Quick one: COc1cc(-c2cnc3nonc3n2)c(OC)c2c1OCO2
inactive

---

Test system: CCRF-CEM leukemia
Experiment: NCI-60 one-dose screen, 48 h
Details: 10 µM unless noted
About 83,000 compounds went through this panel and 20% of them were active in at least one assay; those are over-represented in the sample as a whole. The source made the active and inactive calls. How the source made its calls: active means growth percent below 10; inactive means the rest.
Output constraint: value belongs to 1.0 = active, 0.0 = inactive

Worked examples, 4 compounds total:
Cc1cc(N/N=C/c2nc(-c3ccc(Cl)cc3)oc2C)c2cc(Cl)ccc2n1	1.0
CCN(CC)CCCNc1cc(OC)cc2nc3cc(Cl)ccc3nc12	0.0
CNCc1cccc2c1OCCOCCOCCN(C)S(=O)(=O)c1ccc(cc1)-c1cnc(N)c(n1)C(=O)N2	1.0
COc1ccc(-c2cc(/C=C3\C(=O)Nc4ccc(Cl)cc43)[nH]n2)cc1	0.0

Consider the additional compound presented here.
Query: recorded result category for COc1ccc(C(=O)c2sc3nc4c(c(C(F)(F)F)c3c2N)CN(C(C)=O)CC4)cc1OC in this test
0.0
